study target: human SIRPα v2 expressed on cells (CHOK1 stable line KYinno KC-1720) (human) (UniProt P78324)
experiment: FACS, CHOK1-hSIRPα v2 cells
Entries and their measured EC50 follow.
Response body: numeric value in nM, unit text excluded.

# example entries with known answers
# binder, quantitative result
rows = [
    ("025c (antibody, V domains shown) VH: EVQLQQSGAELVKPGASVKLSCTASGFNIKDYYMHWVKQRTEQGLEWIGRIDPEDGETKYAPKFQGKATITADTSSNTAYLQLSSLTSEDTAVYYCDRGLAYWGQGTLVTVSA VL: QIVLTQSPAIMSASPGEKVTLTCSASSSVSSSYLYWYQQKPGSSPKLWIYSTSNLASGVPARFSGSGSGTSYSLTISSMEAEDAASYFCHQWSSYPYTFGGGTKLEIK", 0.99),
    ("hu025.033 (antibody, V domains shown) VH: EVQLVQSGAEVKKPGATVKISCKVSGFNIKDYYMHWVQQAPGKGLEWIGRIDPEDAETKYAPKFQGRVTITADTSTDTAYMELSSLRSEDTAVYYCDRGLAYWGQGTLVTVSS VL: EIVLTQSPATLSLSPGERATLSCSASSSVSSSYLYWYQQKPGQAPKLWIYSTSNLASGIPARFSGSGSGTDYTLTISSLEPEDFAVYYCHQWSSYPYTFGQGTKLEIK", 0.62),
]

// query Field request: EC50 | item: hu025.059 (antibody, V domains shown) VH: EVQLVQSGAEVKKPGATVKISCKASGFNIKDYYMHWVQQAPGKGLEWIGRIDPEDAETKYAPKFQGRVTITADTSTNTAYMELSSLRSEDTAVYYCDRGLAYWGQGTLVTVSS VL: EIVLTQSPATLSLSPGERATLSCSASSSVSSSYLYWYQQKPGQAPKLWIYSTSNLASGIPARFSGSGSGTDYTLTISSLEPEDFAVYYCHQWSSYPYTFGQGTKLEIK
// result 0.75

Reference source for all entries: patent US20250270315A1
